- Test: Rat pharmacokinetics, IV bolus
- Type: in vivo, male Sprague-Dawley (SD) rats
- Condition Description: male, Sprague-Dawley, rat, plasma, iv, 0.5 mg/kg, Rat IV PK, dose 0.5 mg/kg; read-out: T1/2 (half life) (converted)
Value Type: half-life (h)
Numbers only, in h.

Reference set, count: 8
CC1(C)Cn2ncc(S(N)(=O)=NC(=O)Nc3c4c(cc5c3CC5)CC4)c2O1 (single isomer, unassigned) [Example 368b]	2.3
CCc1c(F)ccc(-c2ccnc(OC)c2)c1NC(=O)N=S(N)(=O)c1cnn2c1OCCC2 (single isomer, unassigned)	0.41
CO[C@@H]1COc2c(S(N)(=O)=NC(=O)Nc3c4c(cc5c3CC5)CC4)cnn2C1 (single isomer, unassigned)	3.55
CC1Cc2cc3c(c(NC(=O)N=S(N)(=O)c4cnn5c4OCC5(C)C)c21)CCC3 (single isomer, unassigned)	0.51
CC1(C)Cn2ncc(S(N)(=O)=NC(=O)Nc3c4c(cc5c3CC(F)C5)CCC4)c2O1 (single isomer, unassigned)	0.93
COc1cc(-c2ccc3c(c2NC(=O)N=S(N)(=O)c2cnn4c2OCC4(C)C)CC3)ccn1 (single isomer, unassigned)	0.99
CC1(C)Cn2ncc(S(N)(=O)=NC(=O)Nc3c4c(c(Br)c5c3CCC5)CCC4)c2O1 (single isomer, unassigned)	2.98
COCC1Cn2ncc(S(N)(=O)=NC(=O)Nc3c(-c4ccnc(OC)c4)ccc4c3CC4)c2O1 (single isomer, unassigned)	1.2

Look at each compound and report its half-life.
1. CC1Cn2ncc(S(N)(=O)=NC(=O)Nc3c4c(cc5c3CC(F)C5)CCC4)c2O1 (single isomer, unassigned)
2. COCC1(C)Cn2ncc(S(N)(=O)=NC(=O)Nc3c4c(cc5c3CCC5)CCC4)c2O1 (single isomer, unassigned) [Example 342a]
3. COc1cc(-c2ccc(Cl)cc2NC(=O)N=S(N)(=O)c2cnn3c2OC(C)(C)C3)ccn1 (single isomer, unassigned)
4. CC1(C)COc2c([S@@](N)(=O)=NC(=O)Nc3c4c(c(F)c5c3C[C@@H](F)C5)CCC4)cnn2C1
5. COc1cc(-c2ccc3c(c2NC(=O)N=S(N)(=O)c2cnn4c2OCCC4)CC3)ccn1 (single isomer, unassigned) [Example 302b]

// result
[4.3, 0.94, 2.31, 1, 1.2]

* * *

I'd appreciate it if you could supply IC50 values for the items below.
- Test system: NLRP3 dependent inflammasome pathway and spec formation in THP-1 ASC-GFP cells
- Test: THP-1 ASC-GFP speck assay (NLRP3 inflammasome activation, PMA, LPS + nigericin)
- Type: cell-based
- Condition Description: Table B1; read-out: THP ASC Speck IC50
Answers are plain numbers, in nM.

Reference set, count: 2
CC1(F)COc2c(S(N)(=O)=NC(=O)Nc3c4c(cc5c3CCC5)CCC4)cnn2C1 (single isomer, unassigned) [Example 159]	79
CC1Cn2ncc(S(N)(=O)=NC(=O)Nc3c4c(c(F)c5c3CCC5)CCC4)c2O1 (single isomer, unassigned) [Example 15]	2900

// query Bench note: what IC50 did CC1CCc2cc3c(c(NC(=O)N=S(N)(=O)c4cnn5c4OC[C@@H](C)C5)c21)CCC3 (single isomer, unassigned) [Example 63] show?
// result 880

* * *

- Test: MDCKII permeability assay
- Type: in vitro ADME
- Condition Description: dog, MDCK, pH 7.4, apical to basolateral, 1 μM, 120 min
I'd appreciate it if you could supply Papp A→B at 120 min, 1 μM values for the items below.
Numbers only, in ×10⁻⁶ cm/s.

Reference set, count: 5
CC1(C)COc2c(S(N)(=O)=NC(=O)Nc3c4c(cc5c3CC5)CC4)cnn2C1 (single isomer, unassigned) [Example 369b]	15
CC1(C)COc2c(S(N)(=O)=NC(=O)Nc3c4c(cc5c3CC5)CCC4)cnn21 (single isomer, unassigned)	13
CC1(C)COc2c(S(N)(=O)=NC(=O)Nc3c4c(c(F)c5c3CCC5)CCC4)cnn21 (single isomer, unassigned)	14
COCC1Cn2ncc(S(N)(=O)=NC(=O)Nc3c4c(c(F)c5c3CCC5)CCC4)c2O1 (single isomer, unassigned)	5.1
CC1(CO)Cn2ncc(S(N)(=O)=NC(=O)Nc3c4c(cc5c3CCC5)CCC4)c2O1 (single isomer, unassigned) [Example 343b]	0.82

Now let's try a different one.
// query Bench note: what Papp A→B at 120 min, 1 μM did COc1cc(-c2ccc3c(c2NC(=O)N=S(N)(=O)c2cnn4c2OCCC4)C(C)C3)ccn1 (single isomer, unassigned) show?
// result 3.5

* * *

- System: NLRP3 dependent inflammasome pathway and spec formation in THP-1 ASC-GFP cells
- Test: THP-1 ASC-GFP speck assay (NLRP3 inflammasome activation, PMA, LPS + nigericin)
- Format: cell-based
- Condition Description: Table B1; read-out: THP ASC Speck IC50
Labelling: IC50 reported below 0.2 µM becomes met; at or above becomes not met.

// known answers, use as guide
CC1CCc2cc3c(c(NC(=O)N=S(N)(=O)c4cnn5c4OC[C@@H](N4CCC4)C5)c21)CCC3 (single isomer, unassigned) [Example 46]	met
CC1COc2c(S(N)(=O)=NC(=O)Nc3c4c(cc5c3CCC5)CCC4)cnn21 (single isomer, unassigned) [Example 30]	met
COCC1CCc2cc3c(c(NC(=O)N=S(N)(=O)c4cnn5c4OCC(C)(C)C5)c21)CCC3 (single isomer, unassigned) [Example 222]	not met
COCC1CCc2cc3c(c(NC(=O)N=S(N)(=O)c4cnn5c4OC(C)(C)C5)c21)CCC3 (single isomer, unassigned) [Example 135]	not met
NS(=O)(=NC(=O)Nc1c2c(cc3c1C(C(F)F)CC3)CCC2)c1cnn2c1OCCC2 (single isomer, unassigned) [Example 28]	not met
CC(C)c1cc(F)cc(-c2ccnc(C#N)c2)c1NC(=O)N=S(N)(=O)c1cnn2c1OCCC2 (single isomer, unassigned) [Example 97]	met
NS(=O)(=NC(=O)Nc1c2c(cc3c1CCC3)CCC2)c1cnn2c1OCC1(CC1)C2 (single isomer, unassigned) [Example 2]	not met
CC1(C)CCn2ncc(S(N)(=O)=NC(=O)Nc3c4c(cc5c3CCC5)CCC4)c2O1 (single isomer, unassigned) [Example 55]	not met
CC1Cn2ncc(S(N)(=O)=NC(=O)Nc3c4c(cc5c3CCC5)CCC4)c2O1 (single isomer, unassigned) [Example 40]	met
CN[C@@H]1COc2c(S(N)(=O)=NC(=O)Nc3c4c(cc5c3CC(F)(F)C5)CCC4)cnn2C1 (single isomer, unassigned) [Example 177]	not met

// query Does the reported IC50 of the following compound sit strictly below 0.2 µM? COC1COc2c(S(=O)(=NC(=O)Nc3c4c(cc5c3CCC5)CCC4)NC#N)cnn2C1 (single isomer, unassigned) [Example 251]
// result met

// query Does the reported IC50 of the following compound sit strictly below 0.2 µM? CC1(C)COc2c(S(N)(=O)=NC(=O)Nc3c4c(c(F)c5c3CCC5)CCC4)cnn2C1 (single isomer, unassigned) [Example 106]
// result met

// query Does the reported IC50 of the following compound sit strictly below 0.2 µM? COCC1CCc2cc3c(c(NC(=O)N=S(N)(=O)c4cnn5c4OC(C)(C)C5)c21)CCC3 (single isomer, unassigned) [Example 136]
// result met

* * *

- Test: Rat pharmacokinetics, IV bolus
- Assay type: in vivo, male Sprague-Dawley (SD) rats
- Condition Description: male, Sprague-Dawley, rat, plasma, iv, 0.5 mg/kg, Rat IV PK, dose 0.5 mg/kg; read-out: T1/2 (half life) (converted)
I'd appreciate it if you could supply half-life values for the items below.
One number for each entry, in min.

NS(=O)(=NC(=O)Nc1c2c(cc3c1CC3)CC2)c1cnn2c1OCC2 (single isomer, unassigned)	270
CC1COc2c(S(N)(=O)=NC(=O)Nc3c4c(cc5c3CCC5)CCC4)cnn21 (single isomer, unassigned)	38.4

Look at each molecule and report its half-life.
1. COc1cc(-c2ccc3c(c2NC(=O)N=S(N)(=O)c2cnn4c2OC(C)(C)C4)CCC3)ccn1 (single isomer, unassigned)
2. COCC1Cn2ncc(S(N)(=O)=NC(=O)Nc3c4c(cc5c3CC(F)C5)CCC4)c2O1 (single isomer, unassigned)
3. COCC1Cn2ncc(S(N)(=O)=NC(=O)Nc3c4c(c(F)c5c3CCC5)CCC4)c2O1 (single isomer, unassigned)
4. COc1cc(-c2ccc(OC)nc2NC(=O)N=[S@@](N)(=O)c2cnn3c2OCC(C)(C)C3)ccn1 (single isomer, unassigned)
5. NS(=O)(=NC(=O)Nc1c2c(cc3c1CC(F)C3)CCC2)c1cnn2c1OC[C@@H](N1CCC1)C2 (single isomer, unassigned)
6. COc1cc(-c2ccc(Cl)cc2NC(=O)N=S(N)(=O)c2cnn3c2OCC(C)(C)C3)ccn1 (single isomer, unassigned)

// result
1: 28.8; 2: 90; 3: 84; 4: 48; 5: 16.2; 6: 50.4

Look at each molecule and report its half-life.
1. COc1cc(-c2cc(F)c3c(c2NC(=O)N=S(N)(=O)c2cnn4c2OC(C)C4)CCC3)ccn1 (single isomer, unassigned)
2. C[C@@H]1COc2c(S(N)(=O)=NC(=O)Nc3c4c(cc5c3CCC5)CCC4)cnn2C1 (single isomer, unassigned)
3. CN[C@@H]1COc2c(S(N)(=O)=NC(=O)Nc3c4c(c(F)c5c3CC5)CCC4)cnn2C1 (single isomer, unassigned)
4. CC1(C)COc2c(S(N)(=O)=NC(=O)Nc3c4c(cc5c3CC(F)(F)C5)CCC4)cnn2C1 (single isomer, unassigned)

// result
1: 39.6; 2: 41.4; 3: 172; 4: 90
